Target: human Siglec-2/CD22 protein (Homo sapiens, UniProt P20273)
Construct: purchased Acro Biosystems SI2-H82E3
Sequence (P20273 20-847): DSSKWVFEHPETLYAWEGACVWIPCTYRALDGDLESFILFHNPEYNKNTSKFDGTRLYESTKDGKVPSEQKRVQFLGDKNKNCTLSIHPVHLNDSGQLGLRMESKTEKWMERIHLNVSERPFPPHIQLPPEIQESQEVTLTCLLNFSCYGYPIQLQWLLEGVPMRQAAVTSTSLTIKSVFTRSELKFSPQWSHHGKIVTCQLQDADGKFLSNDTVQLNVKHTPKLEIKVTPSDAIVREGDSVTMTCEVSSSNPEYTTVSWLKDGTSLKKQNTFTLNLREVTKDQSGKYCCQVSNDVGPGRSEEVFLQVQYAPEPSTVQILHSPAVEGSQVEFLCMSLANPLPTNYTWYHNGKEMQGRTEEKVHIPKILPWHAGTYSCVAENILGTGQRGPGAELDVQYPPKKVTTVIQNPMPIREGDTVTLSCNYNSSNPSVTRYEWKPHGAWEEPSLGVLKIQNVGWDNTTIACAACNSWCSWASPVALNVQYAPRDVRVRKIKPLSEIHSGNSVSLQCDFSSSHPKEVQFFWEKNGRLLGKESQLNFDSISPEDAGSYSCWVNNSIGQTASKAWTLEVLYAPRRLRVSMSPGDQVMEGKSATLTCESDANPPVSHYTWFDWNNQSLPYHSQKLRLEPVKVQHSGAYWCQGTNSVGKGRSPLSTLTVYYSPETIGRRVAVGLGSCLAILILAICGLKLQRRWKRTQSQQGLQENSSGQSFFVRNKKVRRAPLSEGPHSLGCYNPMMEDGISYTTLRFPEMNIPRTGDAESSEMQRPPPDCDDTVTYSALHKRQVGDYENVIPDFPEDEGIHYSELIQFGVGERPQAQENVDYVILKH
Experiment: SPR binding affinity to human CD22
Details: steady-state analysis
readout.type: Kd

[Q] Record C#CCNc1c(NCCCCCCO[C@]2(C(=O)O)C[C@H](O)[C@@H](NC(=O)CO)[C@H]([C@H](O)[C@H](O)CNC(=O)Cc3ccc(-c4ccccc4)cc3)O2)c(=O)c1=O : what is its Kd with human Siglec-2/CD22 protein (Homo sapiens, UniProt P20273)?
[A] < 1 µM

[Q] Request - read-out Kd | tested on human Siglec-2/CD22 protein (Homo sapiens, UniProt P20273) | molecule C#CCOCCOCCO[C@]1(C(=O)O)C[C@H](O)[C@@H](NC(=O)CO)[C@H]([C@H](O)[C@H](O)CNC(=O)Cc2ccc(-c3cccnc3)cc2)O1
[A] 1 to 10 µM

[Q] Requested read-out Kd, target or system human Siglec-2/CD22 protein (Homo sapiens, UniProt P20273), entry CC(=O)NCCOCCOCCOCCOCCNC(=O)CCOCCO[C@]1(C(=O)O)C[C@H](O)[C@@H](NC(=O)CO)[C@H]([C@H](O)[C@H](O)CNC(=O)Cc2ccc(Cl)cc2)O1
[A] 1 to 10 µM

[Q] Write down the reported Kd of C#CCOc1ccccc1-c1cn([C@]2(C(=O)O)C[C@H](O)[C@@H](NC(=O)CO)[C@H]([C@H](O)[C@H](O)CNC(=O)Cc3ccc(-c4ccc(O)cc4)cc3)O2)nn1 , test system: human Siglec-2/CD22 protein (Homo sapiens, UniProt P20273).
[A] < 1 µM

[Q] Query the reported Kd for human Siglec-2/CD22 protein (Homo sapiens, UniProt P20273); item: C#CCCOc1ccc(CO[C@]2(C(=O)O)C[C@H](O)[C@@H](NC(=O)CO)[C@H]([C@H](O)[C@H](O)CNC(=O)Cc3ccc(N4CCOCC4)cc3)O2)cc1
[A] 1 to 10 µM

[Q] // lookup Kd | system=human Siglec-2/CD22 protein (Homo sapiens, UniProt P20273) | key= CC(=O)NCCOCCOCCOCCOCCNC(=O)CCCCCCO[C@]1(C(=O)O)C[C@H](O)[C@@H](NC(C)=O)[C@H]([C@H](O)[C@H](O)CNC(=O)c2cccc(Cl)c2)O1
[A] 1 to 10 µM

[Q] For human Siglec-2/CD22 protein (Homo sapiens, UniProt P20273), provide Kd of CC(=O)NCCOCCOCCOCCOCCNc1c(NCCCCCCO[C@]2(C(=O)O)C[C@H](O)[C@@H](NC(=O)CO)[C@H]([C@H](O)[C@H](O)CNC(=O)Cc3ccc(C(F)F)cc3)O2)c(=O)c1=O please.
[A] < 1 µM

[Q] Fill in the recorded Kd for this molecule, with human Siglec-2/CD22 protein (Homo sapiens, UniProt P20273) as test system: CC(=O)NCCOCCOCCOCCOCCNc1c(NCCCCCCO[C@]2(C(=O)O)C[C@H](O)[C@@H](NC(=O)CO)[C@H]([C@H](O)[C@H](O)CNC(=O)Cc3ccc(-c4nnn[nH]4)cc3)O2)c(=O)c1=O
[A] < 1 µM

[Q] Given the entry C#CCOc1ccc(CO[C@]2(C(=O)O)C[C@H](O)[C@@H](NC(=O)CO)[C@H]([C@H](O)[C@H](O)CNC(=O)Cc3ccccc3O)O2)cc1 , what Kd was observed with human Siglec-2/CD22 protein (Homo sapiens, UniProt P20273)?
[A] 1 to 10 µM

[Q] Notebook: pull reported Kd for human Siglec-2/CD22 protein (Homo sapiens, UniProt P20273), entry C#CCOCCOCCO[C@]1(C(=O)O)C[C@H](O)[C@@H](NC(=O)CO)[C@H]([C@H](O)[C@H](O)CNC(=O)Cc2ccc(O)c(Cl)c2)O1
[A] > 10 µM
